This listing pairs compounds with measured pIC50.
Tested on: Z-138 (mantle cell lymphoma)
Test: Antiproliferative activity, Z-138 cells (Alamar Blue)
Type: cell-based
Settings: Homo sapiens, Table 10, 72 h, average of several tests
pIC50: −log10 of the molar value.
Outcome Measure: pIC50

>>> print(df.to_string())
                                   compound  outcome_measure  relation_operator  recorded_number
0  C=CC(=O)Oc1cnc2c(c(-c3ccc(-n4ccc(=O)cc4)cc3)nn2[C@@H]2CCCN(C(=O)C=C)C2)c1Cl [BCD-BTK-136]            pIC50                  <             4.30
1  C=CC(=O)N1CCC[C@@H](n2nc(-c3ccc(C(=O)Nc4ncccc4F)cc3)c3cncc(F)c32)C1 [BCD-BTK-249]            pIC50                  <             4.30
2  C=CC(=O)N1CCC[C@@H](n2nc(-c3ccc(Oc4ccncc4)cc3)c3c(N)ncc(OC)c32)C1 [BCD-BTK-239]            pIC50                  =             4.80
3  C=CC(=O)N1CCC[C@@H](n2nc(-c3ccc(C(=O)Nc4cc(C(F)(F)CCC)ccn4)cc3)c3cncc(F)c32)C1 [BCD-BTK-247]            pIC50                  <             4.30
4  C=CC(=O)N1CCC[C@@H](n2nc(-c3ccc(-n4ccc(=O)c(C#N)c4)cc3)c3cncc(Cl)c32)C1 [BCD-BTK-208]            pIC50                  =             4.49
5  C=CC(=O)Nc1cc2c(-c3ccc(-n4ccc(=O)cc4)cc3)nn([C@@H]3CCCN(C(=O)C=C)C3)c2nc1C [BCD-BTK-117]            pIC50                  =             4.63
6  C=CC(=O)N1CCC[C@@H](n2nc(-c3ccc(C(=O)Nc4cc(C(F)(F)F)ccn4)cc3)c3cncc(C#N)c32)C1 [BCD-BTK-221]            pIC50                  =             5.30
7  C=CC(=O)N1CCC[C@@H](n2nc(-c3ccc(C(=O)Nc4ncccc4F)cc3)c3c(N)ncc(Cl)c32)C1 [BCD-BTK-233]            pIC50                  =             5.39

====

Target: recombinant Btk kinase enzyme (Homo sapiens)
Construct: purchased SignalChem B10-10H
Sequence (Q06187 whole entry): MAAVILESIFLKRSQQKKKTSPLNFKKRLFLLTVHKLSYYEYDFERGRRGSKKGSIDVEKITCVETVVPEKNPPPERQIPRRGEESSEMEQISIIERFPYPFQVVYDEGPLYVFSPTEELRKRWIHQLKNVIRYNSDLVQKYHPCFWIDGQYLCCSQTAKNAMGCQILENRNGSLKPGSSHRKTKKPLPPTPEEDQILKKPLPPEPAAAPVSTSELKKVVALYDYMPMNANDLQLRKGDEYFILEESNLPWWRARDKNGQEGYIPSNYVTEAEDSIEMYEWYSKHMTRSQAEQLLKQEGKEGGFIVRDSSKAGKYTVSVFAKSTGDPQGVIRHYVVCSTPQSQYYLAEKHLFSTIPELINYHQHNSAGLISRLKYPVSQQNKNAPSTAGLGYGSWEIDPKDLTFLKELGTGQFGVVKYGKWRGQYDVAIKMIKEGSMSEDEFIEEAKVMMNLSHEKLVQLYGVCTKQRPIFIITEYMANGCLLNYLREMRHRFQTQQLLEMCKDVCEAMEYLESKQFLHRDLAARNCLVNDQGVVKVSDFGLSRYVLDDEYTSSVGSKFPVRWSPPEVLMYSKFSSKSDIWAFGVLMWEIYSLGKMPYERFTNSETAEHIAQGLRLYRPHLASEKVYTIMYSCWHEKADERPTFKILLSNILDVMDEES
Test: In vitro inhibition of Btk kinase activity (ADP-Glo)
Assay type: biochemical
Conditions: Table 8; ADP-Glo; read-out: IC50 kinase BTK
Lab note: cut-off is 10 nM. Strictly less in IC50 is satisfied. Exactly 10 nM or more is not satisfied.

>>> print(df.to_string())
                                    compound                           target_of_assay          label
 0  C=CC(=O)N1CCC[C@@H](n2nc(-c3ccc(Oc4ccncc4C#N)cc3)c3cncc(Cl)c32)C1 [BCD-BTK-202]  recombinant Btk kinase enzyme (Homo sapiens)  not satisfied
 1  C=CC(=O)N1CCC[C@@H](n2nc(-c3ccc(C(=O)Nc4ccc(F)cn4)cc3)c3cncc(F)c32)C1 [BCD-BTK-244]  recombinant Btk kinase enzyme (Homo sapiens)  not satisfied
 2  C=CC(=O)N1CCC[C@@H](n2nc(-c3ccc(Oc4ccncc4)cc3)c3c(N)ncc(C(N)=O)c32)C1 [BCD-BTK-135]  recombinant Btk kinase enzyme (Homo sapiens)      satisfied
 3  C=CC(=O)N1CCC[C@@H](n2nc(-c3ccc(Oc4cccnc4C#N)cc3)c3cncc(Cl)c32)C1 [BCD-BTK-218]  recombinant Btk kinase enzyme (Homo sapiens)  not satisfied
 4  C=CC(=O)N1CCC[C@@H](n2nc(-c3ccc(C(=O)Nc4ncccc4F)cc3)c3c(N)ncc(Cl)c32)C1 [BCD-BTK-233]  recombinant Btk kinase enzyme (Homo sapiens)  not satisfied
 5  C=CC(=O)N1CCC[C@@H](n2nc(-c3ccc(Oc4cccnc4C#N)cc3)c3c(N)ncc(Cl)c32)C1 [BCD-BTK-236]  recombinant Btk kinase enzyme (Homo sapiens)  not satisfied
 6  C=CC(=O)N1CCC[C@@H](n2nc(-c3ccc(C(=O)Nc4cc(C(F)(F)CC)ccn4)cc3)c3cncc(Cl)c32)C1 [BCD-BTK-215]  recombinant Btk kinase enzyme (Homo sapiens)  not satisfied
 7  C=CC(=O)N1CC[C@H](n2nc(-c3ccc(Oc4ccncc4)cc3)c3cncc(Cl)c32)C1 [BCD-BTK-266]  recombinant Btk kinase enzyme (Homo sapiens)  not satisfied
 8  C=CC(=O)N1CCC[C@@H](n2nc(-c3ccc(C(=O)Nc4ccccn4)cc3)c3c(N)ncc(Cl)c32)C1 [BCD-BTK-238]  recombinant Btk kinase enzyme (Homo sapiens)  not satisfied
 9  C=CC(=O)N1CCC[C@@H](n2nc(-c3cnc(C(=O)Nc4ccccn4)nc3)c3cncc(Cl)c32)C1 [BCD-BTK-229]  recombinant Btk kinase enzyme (Homo sapiens)  not satisfied
10  C=CC(=O)N1CCC[C@@H](n2nc(-c3ccc(C(=O)Nc4ccccn4)cc3)c3cncc(Cl)c32)C1 [BCD-BTK-201]  recombinant Btk kinase enzyme (Homo sapiens)  not satisfied
11  C=CC(=O)N1CCC[C@@H](n2nc(-c3ccc(C(=O)Nc4ccc(F)cn4)cc3)c3c(N)ncc(Cl)c32)C1 [BCD-BTK-237]  recombinant Btk kinase enzyme (Homo sapiens)  not satisfied
12  C=CC(=O)N1CCC[C@@H](n2nc(-c3ccc(C(=O)Nc4ncccc4F)cc3)c3cncc(C#N)c32)C1 [BCD-BTK-235]  recombinant Btk kinase enzyme (Homo sapiens)  not satisfied
13  C=CC(=O)N1CCC[C@@H](n2nc(-c3ccc(C(=O)Nc4ccccn4)cc3)c3c(N)ncc(C#N)c32)C1 [BCD-BTK-234]  recombinant Btk kinase enzyme (Homo sapiens)      satisfied
14  C=CC(=O)N1CCC[C@@H](n2nc(-c3ccc(C(=O)Nc4ccccn4)cc3)c3cncc(C#N)c32)C1 [BCD-BTK-228]  recombinant Btk kinase enzyme (Homo sapiens)  not satisfied
15  C=CC(=O)N1CCC[C@@H](n2nc(-c3ccc(Oc4cccnc4C(N)=O)cc3)c3cncc(Cl)c32)C1 [BCD-BTK-220]  recombinant Btk kinase enzyme (Homo sapiens)  not satisfied
16  C=CC(=O)N1CCC[C@@H](n2nc(-c3ccc(C(=O)Nc4cc(C(F)(F)CCC)ccn4)cc3)c3cncc(Cl)c32)C1 [BCD-BTK-252]  recombinant Btk kinase enzyme (Homo sapiens)  not satisfied
17  C=CC(=O)N1CCC[C@@H](n2nc(-c3ccc(C(=O)Nc4ncccc4F)cc3)c3c(N)ncc(C#N)c32)C1 [BCD-BTK-258]  recombinant Btk kinase enzyme (Homo sapiens)      satisfied
18  CC#CC(=O)N1CCC[C@@H](n2nc(-c3ccc(C(=O)Nc4ccccn4)cc3)c3c(N)ncc(Cl)c32)C1 [BCD-BTK-295]  recombinant Btk kinase enzyme (Homo sapiens)  not satisfied
